Hey, just so you know, these numbers are from patent US4831155A.

target: acetylcholinesterase originating from "Electrophorus electricus" (Electrophorus electricus); details: bimolecular rate constant; value = ki × 10^-5
Sequence (O42275 24-633): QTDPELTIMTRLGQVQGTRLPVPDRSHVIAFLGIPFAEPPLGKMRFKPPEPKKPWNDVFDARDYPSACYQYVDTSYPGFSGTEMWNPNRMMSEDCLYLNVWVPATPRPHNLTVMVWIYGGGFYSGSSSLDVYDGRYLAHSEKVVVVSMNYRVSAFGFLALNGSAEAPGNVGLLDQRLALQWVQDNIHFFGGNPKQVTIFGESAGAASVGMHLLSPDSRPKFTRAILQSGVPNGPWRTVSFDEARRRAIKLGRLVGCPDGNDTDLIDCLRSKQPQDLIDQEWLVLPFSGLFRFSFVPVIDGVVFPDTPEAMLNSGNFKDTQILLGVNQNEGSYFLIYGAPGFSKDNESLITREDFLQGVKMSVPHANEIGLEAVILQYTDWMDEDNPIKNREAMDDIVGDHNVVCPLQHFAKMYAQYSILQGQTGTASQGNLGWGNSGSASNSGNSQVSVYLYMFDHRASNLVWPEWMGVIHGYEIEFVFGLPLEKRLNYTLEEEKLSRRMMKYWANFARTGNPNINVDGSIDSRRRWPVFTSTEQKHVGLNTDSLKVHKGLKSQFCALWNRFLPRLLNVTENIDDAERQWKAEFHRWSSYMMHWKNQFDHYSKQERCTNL
Would you mind telling me the reported ki × 10^-5 (± S.E.) of each entry?

Which value of ki × 10^-5 (± S.E.) has been reported for CN(C)C(=O)Oc1ccc2c(c1)[C@]1(C)CCN(C)[C@@H]1N2C [dimethyl derivative] in the records?
0.2 ± 0.05

Need ki × 10^-5 (± S.E.) of CCNC(=O)Oc1ccc2c(c1)[C@]1(C)CCN(C)[C@@H]1N2C [Ethyl-] , thanks.
2.3 ± 0.1

GET /values?readout=ki × 10^-5 (± S.E.)&item= CCCCCCCCCNC(=O)Oc1ccc2c(c1)[C@]1(C)CCN(C)[C@@H]1N2C [n.nonyl derivative]
1.5 ± 0.1

For CCCCNC(=O)Oc1ccc2c(c1)[C@]1(C)CCN(C)[C@@H]1N2C [n.butyl derivative] , what is its reported ki × 10^-5 (± S.E.)?
2.0 ± 0.1

Which ki × 10^-5 (± S.E.) value belongs to CCCNC(=O)Oc1ccc2c(c1)[C@]1(C)CCN(C)[C@@H]1N2C [n.Propyl-] ?
0.9 ± 0.1

Param item = CCCCCCCNC(=O)Oc1ccc2c(c1)[C@]1(C)CCN(C)[C@@H]1N2C [heptyl derivative] ; retrieve measured ki × 10^-5 (± S.E.).
2.8 ± 0.1

GET /values?readout=ki × 10^-5 (± S.E.)&item= CCCCCCCCCCCNC(=O)Oc1ccc2c(c1)[C@]1(C)CCN(C)[C@@H]1N2C [Undecyl-]
0.8 ± 0.1

Form field: reported ki × 10^-5 (± S.E.) of CCN(CC)C(=O)Oc1ccc2c(c1)[C@]1(C)CCN(C)[C@@H]1N2C [diethyl derivative]
0.004

====

Assignment: determine reported k3 × 10^2 (± S.E.) for the given molecules.
target: acetylcholinesterase originating from "Electrophorus electricus" (Electrophorus electricus); details: first order reactivation rate constant; value = k3 × 10^2

Which k3 × 10^2 (± S.E.) value belongs to CN(C)C(=O)Oc1ccc2c(c1)[C@]1(C)CCN(C)[C@@H]1N2C ?
8.5 ± 1.2

Can you share its k3 × 10^2 (± S.E.)? I mean this molecule: CCNC(=O)Oc1ccc2c(c1)[C@]1(C)CCN(C)[C@@H]1N2C
2.5 ± 0.3

Which measured k3 × 10^2 (± S.E.) value corresponds to CCCCCCCNC(=O)Oc1ccc2c(c1)[C@]1(C)CCN(C)[C@@H]1N2C ?
0.71 ± 0.08

# k3 × 10^2 (± S.E.) lookup, item CCCCNC(=O)Oc1ccc2c(c1)[C@]1(C)CCN(C)[C@@H]1N2C
0.45 ± 0.14

====

target: acetylcholinesterase originating from "Electrophorus electricus" (Electrophorus electricus)
property: Ki

Item under review: CCCCCCCNC(=O)Oc1ccc2c(c1)[C@]1(C)CCN(C)[C@@H]1N2C . Reported Ki?
53 nM

Name the recorded Ki for CCCCNC(=O)Oc1ccc2c(c1)[C@]1(C)CCN(C)[C@@H]1N2C .
26 nM

Tell me the measured Ki of CCNC(=O)Oc1ccc2c(c1)[C@]1(C)CCN(C)[C@@H]1N2C , please.
130 nM

Recorded Ki of CN(C)C(=O)Oc1ccc2c(c1)[C@]1(C)CCN(C)[C@@H]1N2C , please.
348 nM
